TARGET_OR_TEST_SYSTEM: full length human TREX1 (Homo sapiens)
Construct: N-terminally His-Tev tagged full length human TREX1; made in house; host or cells: E. coli
Sequence (Q9NSU2 1-314): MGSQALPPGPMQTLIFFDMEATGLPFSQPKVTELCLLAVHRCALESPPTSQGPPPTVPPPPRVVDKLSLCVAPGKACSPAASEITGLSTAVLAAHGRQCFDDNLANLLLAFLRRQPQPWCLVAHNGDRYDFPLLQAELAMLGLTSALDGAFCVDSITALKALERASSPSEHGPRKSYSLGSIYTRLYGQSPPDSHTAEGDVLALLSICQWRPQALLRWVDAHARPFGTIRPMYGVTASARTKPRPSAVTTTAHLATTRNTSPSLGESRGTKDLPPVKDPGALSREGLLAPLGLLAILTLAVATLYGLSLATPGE
ASSAY_PROTOCOL: hTREX1 Biochemical Assay (fluorescence, dsDNA substrate degradation)
RUN_PARAMETERS: biochemical, read-out: hTREX1 IC50
REPORTED_PROPERTY: IC50

{"COMPOUND": "CC(c1nc(C(=O)Nc2cnoc2)c(O)c(=O)n1C)C(c1cnn(C)c1)c1cc(F)ccc1C#N (single isomer, unassigned) [Example 14 D2E2]", "VALUE": "> 10 nM"}
{"COMPOUND": "CC(c1nc(C(=O)Nc2cnoc2)c(O)c(=O)n1C)C(c1cnn(C)c1)c1cc(Cl)ccc1C#N (single isomer, unassigned) [Example 26 D1E2]", "VALUE": "< 1 nM"}
{"COMPOUND": "CC(c1nc(C(=O)Nc2cnoc2)c(O)c(=O)n1C)C(c1cnn(CC(C)(C)O)c1)c1ccccc1C#N (single isomer, unassigned) [Example 36 D1E2]", "VALUE": "> 10 nM"}
{"COMPOUND": "CC(c1nc(C(=O)Nc2cnoc2)c(O)c(=O)n1C)C(c1cn(C)cn1)c1ccccc1C#N (single isomer, unassigned) [Example 39 D1E2]", "VALUE": "> 10 nM"}
{"COMPOUND": "CC(c1nc(C(=O)Nc2cnoc2)c(O)c(=O)n1C)C(c1cnn(C)c1)c1ccc(C(=O)N(C)C)cc1C#N (single isomer, unassigned) [Example 11 D1E2]", "VALUE": "> 10 nM"}
{"COMPOUND": "CC(c1nc(C(=O)Nc2cnoc2)c(O)c(=O)n1C)C(c1ccccc1Cl)n1nccc1C(N)=O (single isomer, unassigned) [Example 147 D1E1]", "VALUE": "< 1 nM"}
{"COMPOUND": "Cc1n[nH]c(C)c1C(c1ccccc1C#N)C(C)c1nc(C(=O)Nc2cnoc2)c(O)c(=O)n1C (single isomer, unassigned) [Example 95 D1E2]", "VALUE": "> 10 nM"}
{"COMPOUND": "CC(c1nc(C(=O)Nc2cnoc2)c(O)c(=O)n1C)C(c1cnn(CCN2CCOCC2)c1)c1ccccc1C#N (single isomer, unassigned) [Example 20 D1E2]", "VALUE": "> 10 nM"}
{"COMPOUND": "CCn1cc(C(c2ccccc2C#N)C(C)c2nc(C(=O)Nc3cnoc3)c(O)c(=O)n2C)cn1 (single isomer, unassigned) [Example 13 D1E2]", "VALUE": "> 10 nM"}
{"COMPOUND": "Cc1c(C(c2ccccc2C#N)C(C)c2nc(C(=O)Nc3cnoc3)c(O)c(=O)n2C)cnn1C (single isomer, unassigned) [Example 4 D1E2]", "VALUE": "> 10 nM"}
{"COMPOUND": "Cc1cnc(C(c2cc(F)ccc2C#N)C(C)c2nc(C(=O)Nc3cnoc3)c(O)c(=O)n2C)cn1 (single isomer, unassigned) [Example 115 D1E2]", "VALUE": "< 1 nM"}
{"COMPOUND": "CC(c1nc(C(=O)Nc2cnoc2)c(O)c(=O)n1C)C(c1cnn(CCO)c1)c1ccccc1C#N (single isomer, unassigned) [Example 35 D1E1]", "VALUE": "< 1 nM"}

// provenance: patent US20240246946A1
